test: Components of the Cytosolic LPS Sensing Pathway: Gene Identification via Genome-wide siRNA Screen; conditions: RAW264.7 macrophages, IL-1a HTRF, actives lie on both sides, screened at 100 nM (by protocol), cells primed 5 h with Pam3CSK4 first;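 also: robust z of the log signal after scaling to non-targeting control siRNA wells of the plate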
In all, about 53,000 sequences went through this assay and about 3,700 (7%) were called active.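 The calls were made as follows: active = gene knockdowns whose robust z-score for IL-1 alpha signal is at least 2 or at most -2, so actives lie on both sides; inactive = the rest.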 The full list was thinned out, with actives kept by preference.
Outcome codes: active, inactive

chain: GGAGAUGAUGCCGUCAUUCTT against Chaf1b
answer label: inactive

chain: GGAUCGAGACAAGGCCAAATT against Fes
answer label: active

chain: CCACGUAGGUAAGUGUAGGTT against Oard1
answer label: inactive

chain: GGACGAAUUUCUUACAGUATT against Mterf4
answer label: active

chain: GGGUAGGCAAAGUUUUCAATT against 1700029M20Rik
answer label: active

chain: GCAAAAUCUAGGGAUAAGATT against Trdv2-2
answer label: inactive

chain: GCGCAGAACCCAGAUGAAGTT against Necap2
answer label: inactive

chain: GGAGGUUUUACUCAAACAUTT against Sec14l2
answer label: inactive

chain: GGAUCUAUGGACGACCUUCTT against Kcnj10
answer label: inactive

chain: CCCUAUUUGUCAACGAUUATT against Lrrc24
answer label: inactive

chain: GGAGCUGUUUUCUGUGAAGTT against Mrps2
answer label: inactive

chain: GGGAAAUGGUGAAUCACAGTT against Dpp8
answer label: active

chain: GCCUAUGGGUCAUUUCAAATT against Dock11
answer label: inactive

chain: CCCGGAAUGUUUAGUAUCGTT against Fermt1
answer label: inactive

chain: CGGUUGUCUUCCUCUUAGUTT against Fzd5
answer label: inactive

chain: GCGGCAACAUUCAAAGUGGTT against Itgb2l
answer label: inactive

chain: GGAGCAUCCUGGCAAACAGTT against Slc51b
answer label: inactive

chain: CCAAGCUUACACUAGUGUUTT against Cdk6
answer label: inactive

chain: GGGCUGAAGAUGACUUCAATT against Topors
answer label: active

chain: GGUUUGAUCUCAUUUUCCUTT against Mcm4
answer label: active

chain: GCUCAACUUACGUUCACUCTT against Vps72
answer label: active

chain: GCCUCUUAAUUUUAAGCUGTT against Gpr82
answer label: inactive

chain: GGGUCAGUGUGGAGAGUACTT against Col13a1
answer label: inactive

chain: GGGUUCGAGGAAAAGGAAGTT against Acsf3
answer label: inactive

chain: GGCUGUGUGAGUCUGCUCATT against Ankrd55
answer label: inactive

chain: GGAAUUUCAUGGCAAGGGUTT against Fmc1
answer label: inactive

chain: CCUAAUGUUUAGAUCCAUATT against Gcm2
answer label: inactive

chain: GCAAAUUAGGCUCUUAUCCTT against 4930402H24Rik
answer label: inactive

chain: GGAGUGUAGUAAAUGUACCTT against Ppp1r13b
answer label: active

chain: GCCUAAGAGUUUCAAUAAGTT against Tgtp1
answer label: inactive

chain: GGAUAACUCUUUCAAAGACTT against Lrit2
answer label: inactive

chain: GCAAGGUGACAUCAGAAGUTT against Flot2
answer label: inactive

chain: GGGUACAAAGCAACAUUGGTT against Disp1
answer label: active

chain: GCAAAUAUUGGCCACUCUCTT against Prpf19
answer label: inactive

chain: CCCAGCACUUUUUCGCUCUTT against Olfr458
answer label: inactive

chain: GGUCCUGAAGAUACAUAUUTT against Taf2
answer label: active

chain: GGCUACAUGAGCUGGAGAATT against Insr
answer label: active

chain: CGCCUCAUCAUCUCGAUUCTT against Cnga3
answer label: inactive

chain: GCAUCUACCAUGGAAAUAUTT against Clcn7
answer label: inactive

chain: GGGUAUUUUGACAAUUUGGTT against Lrig3
answer label: inactive

chain: GGGCCAACUCAAAACAAAATT against Wdr37
answer label: inactive

chain: GGCUUAAGGACAAGAAGAUTT against Gsn
answer label: inactive

chain: CCUCUUCAACAAACAAGCATT against Zscan22
answer label: inactive

chain: GGAACCAGAGGACAAAGACTT against Ccdc96
answer label: active

chain: GGGUAGUUUUGACUUUGUUTT against Schip1
answer label: inactive

chain: GGCACCGCUAUUCAGAAUUTT against Fgf23
answer label: inactive

chain: CCCGAUGAAGUGUUUUUAGTT against Oosp1
answer label: inactive

chain: GGAGAUUGGUGUUAGUAACTT against Sp7
answer label: inactive

chain: GCCUGAAUAUUGCUAUCACTT against Gpr107
answer label: active

chain: GCUAAUAACUUUUCAGUGATT against Olfr381
answer label: inactive

====

test: Components of the Cytosolic LPS Sensing Pathway: Gene Identification via Genome-wide siRNA Screen; conditions: RAW264.7 macrophages, IL-1a HTRF, actives lie on both sides, screened at 100 nM (by protocol), cells primed 5 h with Pam3CSK4 first;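 also: robust z of the log signal after scaling to non-targeting control siRNA wells of the plate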
The campaign covered roughly 53,000 sequences. About 3,700 (7%) were called active. The full list was thinned out, with actives kept by preference.
property label: z-score

chain: GCAUGAUUACCCAUUUCAATT against Tax1bp1
property label: z-score
reported: 0.334
--
chain: GGUCAUGGCUGGAUUUCUUTT against Olfr1462
property label: z-score
reported: -2.42
--
chain: GGAGUGGACUCACGUCUAATT against Med23
property label: z-score
reported: 0.717
--
chain: GGUUGGACAAAAAGAAUCUTT against Ifngr1
property label: z-score
reported: 0.507
--
chain: GGGUGGUUAGAACAGCCACTT against Prss16
property label: z-score
reported: -1.21
--
chain: GGCCUUAAAGAAACACAAGTT against Hnrnph2
property label: z-score
reported: 2.3
--
chain: GGAAGAUGAAGAGUCAGAGTT against Setd1b
property label: z-score
reported: -2.52
--
chain: GCACUACAUUGUGGCUGUCTT against Itpr3
property label: z-score
reported: -2.57
--
chain: CCCAGACUCAGUUUUAACUTT against Spsb4
property label: z-score
reported: -1.88
--
chain: GGUGAAGAUUGAGAAGGAGTT against Aifm3
property label: z-score
reported: -2.05
--
chain: CCUCCUAAGGAUGAAGAUUTT against Calml4
property label: z-score
reported: 0.654
--
chain: GGAAGAGGAAUAUUACCAGTT against Marveld3
property label: z-score
reported: -2.16
--
chain: GCAAAGGAUCGCUUGAAAATT against Mrpl40
property label: z-score
reported: -1.15
--
chain: GGAGACUAUUUCAUCUACUTT against Tnfsf15
property label: z-score
reported: 0.347
--
chain: GGCCGUCACUACUCUGAAATT against Mgst2
property label: z-score
reported: -2.29
--
chain: GCCUUACUGACUCGUGUCCTT against Ccp110
property label: z-score
reported: -2.33
--
chain: GCCUUUCUUCUGUCAAUGATT against Olfr281
property label: z-score
reported: 2.38
--
chain: GCUGUACGAGCAUACUGUGTT against Tnxb
property label: z-score
reported: -1.46
--
chain: GGCCUUUAAUUUCUUACACTT against Akt1s1
property label: z-score
reported: -0.6
--
chain: GGACAUUUGAUAUUGAAGATT against B3gnt2
property label: z-score
reported: -1.88
--
chain: GGACUUGAUGACAGUGAAUTT against Strada
property label: z-score
reported: -2.27
--
chain: GGGUCUCUAAGUGCUCCGUTT against Sfxn2
property label: z-score
reported: 0.433
--
chain: GGGCUAAGGACAGAAUUACTT against Tusc2
property label: z-score
reported: -0.0196
--
chain: GGUCCUUUUUUCAACCAGCTT against Sh3gl1
property label: z-score
reported: -0.259
--
chain: GCGAUUACUACUUGAAACUTT against Fa2h
property label: z-score
reported: -0.384

====

experiment: Components of the Cytosolic LPS Sensing Pathway: Gene Identification via Genome-wide siRNA Screen; settings: RAW264.7 macrophages, IL-1a HTRF, actives lie on both sides, screened at 100 nM (by protocol), cells primed 5 h with Pam3CSK4 first;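 also: robust z of the log signal after scaling to non-targeting control siRNA wells of the plate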
In all, about 53,000 sequences went through this assay and about 3,700 (7%) were called active. Many of the other results were omitted from the sample, so actives are more common in it than they were.
A collection of sequences and their measured z-score
property label: z-score

chain: CCGAAUUCCAACCUAGAGCTT against Yipf5
reported: -1.38
--
chain: GGUGCCAAUCCUUUGGACATT against 4930590J08Rik
reported: 3
--
chain: GGUUCAACAUGAAAAUGAUTT against Lingo2
reported: -0.251
--
chain: GGUGUCUUAUGAGCAAUAUTT against Pdcd6
reported: -1.12
--
chain: GGAAUAUGUGUGGACUAGATT against Tor3a
reported: -0.265
--
chain: GGGUUAGCAACUUCAAAUATT against Zmynd19
reported: 0.996
--
chain: GGACUUCUAGAGAAGAAGCTT against Gpn2
reported: 0.0803
--
chain: GGUGUGCAUCAAGCGACUGTT against Cacng6
reported: 2.1
--
chain: GGCAUCAAGUUCUAUCUGUTT against Slc6a11
reported: -0.704
--
chain: GGUUUUGGAAAAAGUGGAUTT against Chp1
reported: -0.867
--
chain: GGAUGAAAAGAUUGAACUCTT against Gart
reported: 3.22
--
chain: UCCUAGAGUCAUCAUCAUATT against A530064D06Rik
reported: -0.44
--
chain: GGACUUUGGUUUUUGUAAGTT against Vasn
reported: -1.72
--
chain: GGAUACACUGUUUGAAUGUTT against Cks1b
reported: 0.00229
--
chain: GCCUUAUCCUGAGAAUGGCTT against Lrrc47
reported: -0.61
--
chain: CCUUGUAUGGAGAUAUUCCTT against Aph1b
reported: -0.573
--
chain: GGAGAGUGCUGAUGUUCUGTT against Rhox6
reported: 2.26
--
chain: GGAGACCUUACCACUUGAATT against Ephx1
reported: -1.2
--
chain: GGAAGGAAGAAGACAAUAATT against Nudt16l1
reported: -0.438
--
chain: GCCCUAUCUACCAUAACACTT against Dok3
reported: -2.11
--
chain: CCACUAAGUCCCAUGCUAGTT against Glycam1
reported: 0.188
--
chain: CGCAGACAGAGACAACCUGTT against Casp6
reported: -0.73
--
chain: GGUUAGCAGGGACCUAAUGTT against Zfp94
reported: 2.57
--
chain: GCAUGAACUUACCCUAUUATT against Vmn1r197
reported: -1.25
--
chain: GGUGUAACUCCUUCAUUGATT against Ripor2
reported: -3.12
--
chain: CCUGUUAAUUGAUUACCUUTT against Pla2r1
reported: 1.03
--
chain: GCAAUGAGGAGUAUAUGUATT against Rfx5
reported: 2.89
--
chain: GGAAGUUUGUAGAGUAUGUTT against Xylt1
reported: -0.187
--
chain: GGAUGCUGACAAAAAUAUCTT against Iars
reported: 0.447
--
chain: GAUCACACUGAAAUCAUCATT against Nudt11
reported: -1.71
--
chain: GCAGUAAAAUGACAUUUGGTT against Dennd6b
reported: 0.694
--
chain: GCCCAUUGUAUGACUGCCGTT against Gfra2
reported: 3.21
--
chain: GCUCCUAUGGCAACAUCGUTT against Olfr303
reported: 2.11
--
chain: GGAAGAAAUACUACAGCCATT against Ptpn12
reported: -0.733
--
chain: GGAAGAGAGAUUCCUAUAGTT against Sec11a
reported: -2.03
--
chain: GGAAAUACCCACCUUAUACTT against Efhc2
reported: 2.51
--
chain: GGAAUACCAGGCCUUCCUUTT against B4galnt1
reported: -0.886
--
chain: GGUGGAAGACAAGAGGAUATT against Sytl5
reported: -0.474
--
chain: GGAUUCUAUGACAAAGACATT against Ddx3x
reported: 1.84
--
chain: GGCUCCACACGAUUGUUAGTT against Gne
reported: -0.0134
--
chain: GGCUGAGAACAAUAUGUAUTT against Ccdc80
reported: 0.323
--
chain: GCACCAUGAAUGGAGAUGATT against Prl2c5
reported: -2.56
--
chain: GGAAGGUGAUGAAGGAUCGTT against Fam118a
reported: 0.0491
--
chain: GCAUCUCUCUAAUAGCCUUTT against Nop16
reported: 1.24
--
chain: GCUCAUGGACCAACCUAUGTT against Olfr1180
reported: 0.501
--
chain: GGACAAAGGGAUAAUGCUGTT against Aldoc
reported: 0.735
--
chain: GCAGUUCCCAUAGUUUUCUTT against Il1r2
reported: 6.07
--
chain: GGAACGAAGUCUGAAACACTT against A730018C14Rik
reported: -1.89
--
chain: GCCAAACAUUGGUGGACAUTT against H2-D1
reported: 0.835
--
chain: GGAGAAAGACAUCAGAAAGTT against Rdh16f2
reported: 0.942
